The measurements presented in this section are drawn from patent US6872833B2.

molecular target: human adenosine A2A receptor (Homo sapiens, UniProt P29274); construct: expressed in transfected cells; host or cells: CHO cells, semliki forest virus expression system; washed membranes; assay: [3H]-SCH-58261 binding assay, human adenosine A2A receptor (CHO cell membranes, SPA); details: recombinant human A2A receptor in CHO membranes, [3H]-SCH-58261 1 nM; read-out: hA2 (pKi) (converted)
Sequence (P29274 whole entry): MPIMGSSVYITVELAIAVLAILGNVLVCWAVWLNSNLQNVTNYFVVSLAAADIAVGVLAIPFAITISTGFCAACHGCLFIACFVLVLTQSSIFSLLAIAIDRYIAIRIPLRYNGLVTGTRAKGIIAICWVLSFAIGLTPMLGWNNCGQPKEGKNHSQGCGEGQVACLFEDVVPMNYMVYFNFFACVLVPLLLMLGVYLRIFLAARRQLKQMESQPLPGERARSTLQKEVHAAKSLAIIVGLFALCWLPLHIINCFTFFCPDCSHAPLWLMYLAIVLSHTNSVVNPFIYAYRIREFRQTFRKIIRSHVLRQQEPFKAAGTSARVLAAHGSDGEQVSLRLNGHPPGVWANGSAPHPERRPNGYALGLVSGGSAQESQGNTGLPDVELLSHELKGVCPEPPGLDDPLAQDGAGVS
attribute_measured: Ki
Give your result as the value with the unit written after it.

Problem: Could you tell me which Ki is on file for COc1cc(C(=O)Nc2nc3c(OC)ccc(C4COCCO4)c3s2)ccn1 (single isomer, unassigned; (+)) ?
Result: 1.2 nM

Problem: Requested field: Ki. Item: COc1cncc(C(=O)Nc2nc3c(OC)ccc(C4COCCO4)c3s2)c1 (single isomer, unassigned; (+))
Result: 0.832 nM

Problem: // Ki lookup, key: CCOC1CN(c2cc(C(=O)Nc3nc4c(OC)ccc(C5COCCO5)c4s3)ccn2)C1 (single isomer, unassigned; (+))
Result: 1.23 nM

Problem: // lookup Ki for COc1ccc(C2COCCO2)c2sc(NC(=O)c3ccc(F)cc3)nc12 (single isomer, unassigned; (+))
Result: 0.832 nM

Problem: # get_value(readout='Ki', item= COc1ccc(C2COCCO2)c2sc(NC(=O)c3ccnc(N4CC(OC)C4)c3)nc12 (single isomer, unassigned; (+)) )
Result: 0.646 nM

Problem: Requested read-out: Ki. Entry: COc1ccc(C2COCCO2)c2sc(NC(=O)c3ccnc(N4CC(O)C4)c3)nc12 (single isomer, unassigned; (+))
Result: 0.851 nM

---

I'd be grateful if you could share measured Selectivity to hA1 for these entries.
Molecular target: human adenosine A1 receptor (Homo sapiens, UniProt P30542)
Construct: expressed in transfected cells; host or cells: CHO cells, semliki forest virus expression system; washed membranes
Sequence (P30542 1-326): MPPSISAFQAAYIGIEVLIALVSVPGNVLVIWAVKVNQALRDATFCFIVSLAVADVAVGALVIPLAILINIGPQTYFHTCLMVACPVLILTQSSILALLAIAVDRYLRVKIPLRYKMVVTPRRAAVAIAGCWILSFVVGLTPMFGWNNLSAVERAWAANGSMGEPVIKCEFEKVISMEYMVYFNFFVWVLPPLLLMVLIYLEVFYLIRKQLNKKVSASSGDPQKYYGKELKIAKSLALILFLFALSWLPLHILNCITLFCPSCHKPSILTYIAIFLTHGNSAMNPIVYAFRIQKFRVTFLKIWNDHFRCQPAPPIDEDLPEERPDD
Assay: [3H]-DPCPX binding assay, human adenosine A1 receptor (CHO cell membranes, SPA)
Settings: selectivity of hA2A versus hA1 binding
Keep it simple and answer with nothing but the number.

Problem: Recorded Selectivity to hA1 for COc1ccc(C2COCCO2)c2sc(NC(=O)c3ccnc(N4CC(OC)C4)c3)nc12 (single isomer, unassigned; (+)) , please?
Result: 5404

Problem: # lookup: Selectivity to hA1 of COc1ccc(C2COCCO2)c2sc(NC(=O)c3ccnc(N4CCOCC4)c3)nc12 (single isomer, unassigned; (+))
Result: 3874

Problem: Which value of Selectivity to hA1 has been reported for COc1ccc(C2COCCO2)c2sc(NC(=O)c3ccnc(C4=CCOCC4)c3)nc12 (racemic) in the records?
Result: 1421

Problem: Could you share which Selectivity to hA1 value was measured for COc1ccc(C2COCCO2)c2sc(NC(=O)c3ccnc(C4CCOCC4)c3)nc12 (racemic) ?
Result: 1582

Problem: I'd like to know its Selectivity to hA1. The molecule in question is COc1ccc(C2COCCO2)c2sc(NC(=O)c3ccnc(C)c3)nc12 (single isomer, unassigned; (+))
Result: 1758

Problem: Record request: Selectivity to hA1 value, item COc1ccc(C2COCCO2)c2sc(NC(=O)c3ccc(F)cc3)nc12 (single isomer, unassigned; (+))
Result: 1005

Problem: Find the recorded Selectivity to hA1 belonging to COc1ccc(C2COCCO2)c2sc(NC(=O)c3ccnc(N4CCC4)c3)nc12 (single isomer, unassigned; (+)) and report it.
Result: 7378

---

molecular target: human adenosine A2A receptor (Homo sapiens, UniProt P29274); construct: expressed in transfected cells; host or cells: CHO cells, semliki forest virus expression system; washed membranes; assay: [3H]-SCH-58261 binding assay, human adenosine A2A receptor (CHO cell membranes, SPA); conditions: recombinant human A2A receptor in CHO membranes, [3H]-SCH-58261 1 nM; read-out: hA2 (pKi) (converted)
Each record's Ki is compared with bin A (below 0.7 nM), bin B (0.7 nM to below 1 nM), bin C (1 nM or more) to give its class.

Problem: For the record COc1ccc(C2COCCO2)c2sc(NC(=O)c3ccnc(C4=CCOCC4)c3)nc12 (racemic) , report the class its Ki corresponds to.
Result: bin C

Problem: Into which category would you place COc1ccc(C2COCCO2)c2sc(NC(=O)c3ccnc(OCCN4CCOCC4)c3)nc12 (single isomer, unassigned; (+)) ?
Result: bin A

Problem: Categorize the following entry: COc1cccc(C(=O)Nc2nc3c(OC)ccc(C4COCCO4)c3s2)c1 (single isomer, unassigned; (+))
Result: bin B

Problem: Could you tell me which band COc1ccc(C2COCCO2)c2sc(NC(=O)c3ccnc(N4CCC(O)CC4)c3)nc12 (single isomer, unassigned; (+)) belongs to?
Result: bin C

Problem: Field: class (Ki) — entry: COc1ccc(C2COCCO2)c2sc(NC(=O)c3cccc(F)c3)nc12 (single isomer, unassigned; (+))
Result: bin C

Problem: GET /class?item= COc1ccc(C2COCCO2)c2sc(NC(=O)c3ccnc(C4CCOCC4)c3)nc12 (racemic)
Result: bin C

Problem: Field: class (Ki) — entry: COc1ccc(C2COCCO2)c2sc(NC(=O)c3ccnc(C)c3)nc12 (single isomer, unassigned; (+))
Result: bin B

Problem: Which class does COc1ccc(C2COCCO2)c2sc(NC(=O)c3ccc(C)cc3)nc12 (single isomer, unassigned; (+)) fall in?
Result: bin A

Problem: Place this compound in its band: COc1ccc(C2COCCO2)c2sc(NC(=O)c3ccc4c(c3)OCO4)nc12 (single isomer, unassigned; (+))
Result: bin A

---

target: human adenosine A1 receptor (Homo sapiens, UniProt P30542); construct: expressed in transfected cells; host or cells: CHO cells, semliki forest virus expression system; washed membranes; test: [3H]-DPCPX binding assay, human adenosine A1 receptor (CHO cell membranes, SPA); settings: selectivity of hA2A versus hA1 binding
Exercise: for every item that follows, state its recorded Selectivity to hA1.
Lab note: write the figure by itself, no unit.

Problem: Any idea what Selectivity to hA1 was measured for COc1cncc(C(=O)Nc2nc3c(OC)ccc(C4COCCO4)c3s2)c1 (single isomer, unassigned; (+)) ?
Result: 8832

Problem: What does the record list as Selectivity to hA1 for COc1cc(C(=O)Nc2nc3c(OC)ccc(C4COCCO4)c3s2)ccn1 (single isomer, unassigned; (+)) ?
Result: 1828

Problem: Could you share which Selectivity to hA1 value was measured for COc1ccc(C2COCCO2)c2sc(NC(=O)c3ccnc(N4CC(F)C4)c3)nc12 (single isomer, unassigned; (+)) ?
Result: 6138

Problem: Selectivity to hA1 lookup needed for COc1ccc(C2COCCO2)c2sc(NC(=O)c3ccnc(N4CC(O)C4)c3)nc12 (single isomer, unassigned; (+)) , thanks.
Result: 2319

Problem: Need Selectivity to hA1 of COc1cccc(C(=O)Nc2nc3c(OC)ccc(C4COCCO4)c3s2)c1 (single isomer, unassigned; (+)) , thanks.
Result: 10082

Problem: Which Selectivity to hA1 reading was recorded for the molecule CCOC1CN(c2cc(C(=O)Nc3nc4c(OC)ccc(C5COCCO5)c4s3)ccn2)C1 (single isomer, unassigned; (+)) ?
Result: 2718

---

Kindly state Ki for each of the entries shown.
target: human adenosine A2A receptor (Homo sapiens); construct: expressed in transfected cells; host or cells: CHO cells, semliki forest virus expression system; washed membranes; test: [3H]-SCH-58261 binding assay, human adenosine A2A receptor (CHO cell membranes, SPA); details: recombinant human A2A receptor in CHO membranes, [3H]-SCH-58261 1 nM; read-out: hA2 (pKi) (converted)
Numbers only; they are read as nM.

Problem: Using the record for COc1ccc(C(=O)Nc2nc3c(OC)ccc(C4COCCO4)c3s2)cc1 (single isomer, unassigned; (+)) , report its Ki.
Result: 0.708

Problem: What does the record list as Ki for COc1ccc(C2COCCO2)c2sc(NC(=O)c3ccnc(N4CCOCC4)c3)nc12 (single isomer, unassigned; (+)) ?
Result: 0.676

Problem: Could you tell me which Ki is on file for COc1ccc(C2COCCO2)c2sc(NC(=O)c3ccnc(N4CC(F)C4)c3)nc12 (single isomer, unassigned; (+)) ?
Result: 0.891
